- Test system: OVCAR-5 ovarian
- test-name: NCI tumour cell line growth inhibition, 48 h
readout-name: GI50

>  <smiles-record>
O=C1C(N2CCN(c3ccccc3)CC2)=C(Cl)C(=O)c2ncccc21

>  <target-of-assay>
OVCAR-5 ovarian

>  <result>
16600 nM

$$$$
>  <smiles-record>
COc1ccc2c(c1)c(CC(=O)[Se]CCC#N)c(C)n2C(=O)c1ccc(Cl)cc1

>  <target-of-assay>
OVCAR-5 ovarian

>  <result>
2800 nM

$$$$
>  <smiles-record>
Cc1ccc2c(n1)C(=O)C(Cl)=C(Nc1cccc(C(C)C)c1)C2=O

>  <target-of-assay>
OVCAR-5 ovarian

>  <result>
2170 nM

$$$$
>  <smiles-record>
C=C(C=O)[C@@H]1CC[C@]2(C)[C@H](CC=C3[C@H]4[C@@H](C)[C@H](C)CC[C@]4(C(=O)OC)CC[C@]32C)[C@@]1(C)CCC#N

>  <target-of-assay>
OVCAR-5 ovarian

>  <result>
2160 nM

$$$$

----------
- Test system: HCT-15 colon
- test-name: NCI tumour cell line growth inhibition, 48 h
Consider the following compounds and their measured GI50 readings.

>  <smiles-record>
O=C1C(N2CCN(c3ccccc3)CC2)=C(Cl)C(=O)c2ncccc21

>  <target-of-assay>
HCT-15 colon

>  <GI50>
2080 nM

$$$$
>  <smiles-record>
COc1ccc2c(c1)c(CC(=O)[Se]CCC#N)c(C)n2C(=O)c1ccc(Cl)cc1

>  <target-of-assay>
HCT-15 colon

>  <GI50>
2170 nM

$$$$
>  <smiles-record>
Cc1ccc2c(n1)C(=O)C(Cl)=C(Nc1cccc(C(C)C)c1)C2=O

>  <target-of-assay>
HCT-15 colon

>  <GI50>
1430 nM

$$$$
>  <smiles-record>
C=C(C)[C@@H]1CC[C@]2(COS(C)(=O)=O)CC[C@]3(C)[C@H](CC[C@@H]4[C@@]5(C)CCCNC(C)(C)[C@@H]5CC[C@]43C)[C@@H]12

>  <target-of-assay>
HCT-15 colon

>  <GI50>
1570 nM

$$$$

----------
- Tested on: KM12 colon
- test-name: NCI tumour cell line growth inhibition, 48 h
Reported values of TGI for individual entries
readout-name: TGI (µM)

>  <smiles-record>
C=C(C)[C@@H]1CC[C@]2(COS(C)(=O)=O)CC[C@]3(C)[C@H](CC[C@@H]4[C@@]5(C)CCCNC(C)(C)[C@@H]5CC[C@]43C)[C@@H]12

>  <readout-unit>
µM

>  <numeric-readout>
3.39

$$$$
>  <smiles-record>
O=C1C(N2CCN(c3ccccc3)CC2)=C(Cl)C(=O)c2ncccc21

>  <readout-unit>
µM

>  <numeric-readout>
43.6

$$$$
>  <smiles-record>
CN1CCN(c2nc(-c3csc(-c4ccccc4)n3)cc3ccccc23)CC1

>  <readout-unit>
µM

>  <numeric-readout>
3.99

$$$$
>  <smiles-record>
Cc1ccc2c(n1)C(=O)C(Cl)=C(Nc1cccc(C(C)C)c1)C2=O

>  <readout-unit>
µM

>  <numeric-readout>
28.6

$$$$

----------
- Test system: MDA-MB-435
- test-name: NCI tumour cell line growth inhibition, 48 h
# reported TGI; entries follow
readout-name: TGI

>  <smiles-record>
C=C(C)[C@@H]1CC[C@]2(COS(C)(=O)=O)CC[C@]3(C)[C@H](CC[C@@H]4[C@@]5(C)CCCNC(C)(C)[C@@H]5CC[C@]43C)[C@@H]12

>  <result>
3.04 µM

$$$$
>  <smiles-record>
COc1cc2c3c(cc4c5c(ccc4c3c1OC)OCO5)N(CCN(C)C)C2=O

>  <result>
0.615 µM

$$$$
>  <smiles-record>
COc1ccc2c(c1)c(CC(=O)[Se]CCC#N)c(C)n2C(=O)c1ccc(Cl)cc1

>  <result>
3.47 µM

$$$$
>  <smiles-record>
Cc1ccc2c(n1)C(=O)C(Cl)=C(Nc1cccc(C(C)C)c1)C2=O

>  <result>
3.16 µM

$$$$

----------
- Tested on: UACC-62 melanoma
- test-name: NCI tumour cell line growth inhibition, 48 h; in the data active means GI50 below about 0.43 µM; inactive means the rest
Classes used: True (active), False (inactive)

>  <smiles-record>
Cc1ccc2c(n1)C(=O)C(Cl)=C(Nc1cccc(C(C)C)c1)C2=O

>  <class-assignment>
False

$$$$
>  <smiles-record>
COCCNc1ccc2ncc(C#Cc3cncc(C(=O)Nc4ccc(CN5CCN(C)CC5)c(C(F)(F)F)c4)c3)n2n1

>  <class-assignment>
True

$$$$
>  <smiles-record>
CN1CCN(c2nc(-c3csc(-c4ccccc4)n3)cc3ccccc23)CC1

>  <class-assignment>
False

$$$$
>  <smiles-record>
COc1ccc2c(c1)c(CC(=O)[Se]CCC#N)c(C)n2C(=O)c1ccc(Cl)cc1

>  <class-assignment>
False

$$$$
>  <smiles-record>
C=C(C)[C@@H]1CC[C@]2(COS(C)(=O)=O)CC[C@]3(C)[C@H](CC[C@@H]4[C@@]5(C)CCCNC(C)(C)[C@@H]5CC[C@]43C)[C@@H]12

>  <class-assignment>
False

$$$$

----------
- System: MCF7 breast
- test-name: NCI tumour cell line growth inhibition, 48 h
readout-name: TGI

>  <smiles-record>
COCCNc1ccc2ncc(C#Cc3cncc(C(=O)Nc4ccc(CN5CCN(C)CC5)c(C(F)(F)F)c4)c3)n2n1

>  <result>
0.933 µM

$$$$
>  <smiles-record>
COc1ccc2c(c1)c(CC(=O)[Se]CCC#N)c(C)n2C(=O)c1ccc(Cl)cc1

>  <result>
9.7 µM

$$$$
>  <smiles-record>
CN1CCN(c2nc(-c3csc(-c4ccccc4)n3)cc3ccccc23)CC1

>  <result>
3.46 µM

$$$$
>  <smiles-record>
C=C(C)[C@@H]1CC[C@]2(COS(C)(=O)=O)CC[C@]3(C)[C@H](CC[C@@H]4[C@@]5(C)CCCNC(C)(C)[C@@H]5CC[C@]43C)[C@@H]12

>  <result>
3.5 µM

$$$$

----------
# TGI annotations
- Test system: NCI-H226 lung
- test-name: NCI tumour cell line growth inhibition, 48 h

>  <smiles-record>
COc1ccc2c(c1)c(CC(=O)[Se]CCC#N)c(C)n2C(=O)c1ccc(Cl)cc1

>  <target-of-assay>
NCI-H226 lung

>  <TGI>
4.01 µM

$$$$
>  <smiles-record>
COc1cc2c3c(cc4c5c(ccc4c3c1OC)OCO5)N(CCN(C)C)C2=O

>  <target-of-assay>
NCI-H226 lung

>  <TGI>
0.344 µM

$$$$
>  <smiles-record>
C=C(C)[C@@H]1CC[C@]2(COS(C)(=O)=O)CC[C@]3(C)[C@H](CC[C@@H]4[C@@]5(C)CCCNC(C)(C)[C@@H]5CC[C@]43C)[C@@H]12

>  <target-of-assay>
NCI-H226 lung

>  <TGI>
3.4 µM

$$$$
>  <smiles-record>
COCCNc1ccc2ncc(C#Cc3cncc(C(=O)Nc4ccc(CN5CCN(C)CC5)c(C(F)(F)F)c4)c3)n2n1

>  <target-of-assay>
NCI-H226 lung

>  <TGI>
0.98 µM

$$$$

----------
Listed below: GI50 values for each entry.
- Tested on: ACHN renal
- test-name: NCI tumour cell line growth inhibition, 48 h
readout-name: GI50

>  <smiles-record>
Cc1ccc2c(n1)C(=O)C(Cl)=C(Nc1cccc(C(C)C)c1)C2=O

>  <result>
1690 nM

$$$$
>  <smiles-record>
COc1ccc2c(c1)c(CC(=O)[Se]CCC#N)c(C)n2C(=O)c1ccc(Cl)cc1

>  <result>
2930 nM

$$$$
>  <smiles-record>
C=C(C)[C@@H]1CC[C@]2(COS(C)(=O)=O)CC[C@]3(C)[C@H](CC[C@@H]4[C@@]5(C)CCCNC(C)(C)[C@@H]5CC[C@]43C)[C@@H]12

>  <result>
1810 nM

$$$$
>  <smiles-record>
CN1CCN(c2nc(-c3csc(-c4ccccc4)n3)cc3ccccc23)CC1

>  <result>
2100 nM

$$$$
>  <smiles-record>
O=C1C(N2CCN(c3ccccc3)CC2)=C(Cl)C(=O)c2ncccc21

>  <result>
2210 nM

$$$$

----------
- System: SK-OV-3 ovarian
- test-name: NCI tumour cell line growth inhibition, 48 h; in the data active means GI50 below about 0.43 µM; inactive means the rest
Labels: true (active), false (inactive)

>  <smiles-record>
COCCNc1ccc2ncc(C#Cc3cncc(C(=O)Nc4ccc(CN5CCN(C)CC5)c(C(F)(F)F)c4)c3)n2n1

>  <class-assignment>
true

$$$$
>  <smiles-record>
Cc1ccc2c(n1)C(=O)C(Cl)=C(Nc1cccc(C(C)C)c1)C2=O

>  <class-assignment>
false

$$$$
>  <smiles-record>
C=C(C)[C@@H]1CC[C@]2(COS(C)(=O)=O)CC[C@]3(C)[C@H](CC[C@@H]4[C@@]5(C)CCCNC(C)(C)[C@@H]5CC[C@]43C)[C@@H]12

>  <class-assignment>
false

$$$$
>  <smiles-record>
CN1CCN(c2nc(-c3csc(-c4ccccc4)n3)cc3ccccc23)CC1

>  <class-assignment>
false

$$$$

From: PubChem BioAssay (NCI)
